assay context: simulated gi fluid, FaSSIF + 1% pancreatin + 3 μg/ml trypsin + 3 μg/ml chymotrypsin half-life
I'd be grateful if you could share measured half-life for these entries.

Some solved entries appear below for comparison.
compound: C=C1NC(=O)[C@H](Cc2c[nH]c3ccccc23)NC(=O)[C@H](NC(=O)[C@H](CCCCN)NC(=O)[C@@H](N)CC(C)C)CSC[C@@H](C(=O)N[C@H]2C(=O)N3CCC[C@H]3C(=O)NCC(=O)N[C@H](C(=O)N[C@@H](C)C(=O)N[C@@H](CC(=O)O)C(=O)NC(=CC)C(=O)NCC(=O)N[C@@H]3CSC[C@@H]4NC(=O)[C@H](Cc5ccc(O)cc5)NC(=O)[C@@H](CS/C=C\NC4=O)NC(=O)[C@H](CC(N)=O)NC(=O)[C@H](Cc4ccccc4)NC3=O)CS[C@H]2C)NC(=O)[C@H](CC(C)C)NC1=O [F1L R13D]
half-life: > 12 h

compound: C=C1NC(=O)[C@H](Cc2c[nH]c3ccccc23)NC(=O)[C@H](NC(=O)[C@H](CCCCN)NC(=O)[C@@H](N)CO)CSC[C@@H](C(=O)N[C@H]2C(=O)N3CCC[C@H]3C(=O)NCC(=O)N[C@H](C(=O)N[C@@H](C)C(=O)N[C@@H](CC(N)=O)C(=O)NC(=CC)C(=O)NCC(=O)N[C@@H]3CSC[C@@H]4NC(=O)[C@H](Cc5ccc(O)cc5)NC(=O)[C@@H](CS/C=C\NC4=O)NC(=O)[C@H](CC(N)=O)NC(=O)[C@H](Cc4ccccc4)NC3=O)CS[C@H]2C)NC(=O)[C@H](CC(C)C)NC1=O [F1S R13N]
half-life: > 12 h

compound: C=C1NC(=O)[C@H](Cc2c[nH]c3ccccc23)NC(=O)[C@H](NC(=O)[C@H](CCCCN)NC(=O)CN)CSC[C@@H](C(=O)N[C@H]2C(=O)N3CCC[C@H]3C(=O)NCC(=O)N[C@H](C(=O)N[C@@H](C)C(=O)N[C@@H](CC(N)=O)C(=O)NC(=CC)C(=O)NCC(=O)N[C@@H]3CSC[C@@H]4NC(=O)[C@H](Cc5ccc(O)cc5)NC(=O)[C@@H](CS/C=C\NC4=O)NC(=O)[C@H](CC(N)=O)NC(=O)[C@H](Cc4ccccc4)NC3=O)CS[C@H]2C)NC(=O)[C@H](CC(C)C)NC1=O [F1G R13N]
half-life: 3.75 h

Now consider a different compound.
Q: Provide one value: measured half-life of C=C1NC(=O)[C@H](Cc2c[nH]c3ccccc23)NC(=O)[C@H](NC(=O)[C@H](CCCCN)NC(=O)[C@@H](N)[C@@H](C)CC)CSC[C@@H](C(=O)N[C@H]2C(=O)N3CCC[C@H]3C(=O)NCC(=O)N[C@H](C(=O)N[C@@H](C)C(=O)N[C@@H](CC(N)=O)C(=O)NC(=CC)C(=O)N[C@@H](C)C(=O)N[C@@H]3CSC[C@@H]4NC(=O)[C@H](Cc5ccc(O)cc5)NC(=O)[C@@H](CS/C=C\NC4=O)NC(=O)[C@H](CC(N)=O)NC(=O)[C@H](Cc4ccccc4)NC3=O)CS[C@H]2C)NC(=O)[C@H](CC(C)C)NC1=O [F1I R13N G15A]
Ans: > 12 h

====

Test system: VRE Enterococcus faecium
Field: MIC VRE ATCC 700221. Provide a value for each of the compounds that follow.
One number for each entry, in µg/mL.

compound: C=C1NC(=O)[C@H](Cc2c[nH]c3ccccc23)NC(=O)[C@H](NC(=O)[C@H](CCCCN)NC(=O)[C@@H](N)CC(C)C)CSC[C@@H](C(=O)N[C@H]2C(=O)N3CCC[C@H]3C(=O)NCC(=O)N[C@H](C(=O)N[C@@H](C)C(=O)N[C@@H](C)C(=O)NC(=CC)C(=O)NCC(=O)N[C@@H]3CSC[C@@H]4NC(=O)[C@H](Cc5ccc(O)cc5)NC(=O)[C@@H](CS/C=C\NC4=O)NC(=O)[C@H](CC(N)=O)NC(=O)[C@H](Cc4ccccc4)NC3=O)CS[C@H]2C)NC(=O)[C@H](CC(C)C)NC1=O [F1L R13A]
tested on: VRE Enterococcus faecium
quantity name: MIC VRE ATCC 700221
observed measurement: 16

Q: State measured MIC VRE ATCC 700221 of the compound C=C1NC(=O)[C@H](Cc2c[nH]c3ccccc23)NC(=O)[C@H](NC(=O)[C@H](CCCCN)NC(=O)[C@@H](N)[C@@H](C)CC)CSC[C@@H](C(=O)N[C@H]2C(=O)N3CCC[C@H]3C(=O)NCC(=O)N[C@H](C(=O)N[C@@H](C)C(=O)N[C@@H](C)C(=O)NC(=CC)C(=O)NCC(=O)N[C@@H]3CSC[C@@H]4NC(=O)[C@H](Cc5ccc(O)cc5)NC(=O)[C@@H](CS/C=C\NC4=O)NC(=O)[C@H](CC(N)=O)NC(=O)[C@H](Cc4ccccc4)NC3=O)CS[C@H]2C)NC(=O)[C@H](CC(C)C)NC1=O [F1I R13A] with VRE Enterococcus faecium.
Ans: 8
